Attribution: patent US20240132480A1

Target: Mtb Lpd (Mycobacterium tuberculosis (strain ATCC 25618 / H37Rv), UniProt P9WHH9)
Format: biochemical
Details: read-out: LPD IC50
quantity_kind: pIC50
As a rule, pIC50 stands for the negative log10 of the concentration, concentration in M.

Example entries begin here.
Cc1cc(S(=O)(=O)N2CC[C@H]2C(=O)Nc2ccc(OCCN(C)C)c(Cl)c2)c2[nH]ncc2c1 [Example 168] :: 6.84
O=C(Nc1ccc(N2CCOCC2)c(Cl)c1)[C@@H]1CCN1S(=O)(=O)c1cc(C(F)F)cc2cn[nH]c12 [Example 190] :: 6.95
COc1ccc(NC(=O)[C@@H]2CCCN2S(=O)(=O)c2cc(C)cc3cn[nH]c23)cc1Cl [Example 4] :: 6.41

# ---- query compound ----
Cc1cc(S(=O)(=O)N2CC[C@H]2C(=O)NC2CCOCC2)c2[nH]ncc2c1 [Example 128] yielded pIC50 of 5.97
